# credit: PubChem BioAssay (NCI)

Assay: NCI Yeast Anticancer Drug Screen. Data for the rad50 strain (AID 155);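 note: 0% = growth of vehicle-only cultures of the same strain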
Details: S. cerevisiae rad50 strain growth inhibition; at 50.0 µM; stronger effect = higher value
The panel holds about 79,000 compounds, 15% with a hit somewhere; the sample as a whole holds those more often.
readout label: growth inhibition (%)

{"compound": "Cc1cc2c(cc1C)[n+](=O)c(C(=O)CC(=O)C(=O)Nc1ccccc1C)c(C)n2[O-]", "readout label": "growth inhibition", "value observed": 37}
{"compound": "Cc1nn(C(=S)S)c(C)c1N=Nc1ccc(O)cc1", "readout label": "growth inhibition", "value observed": 9.3}
{"compound": "COc1cc(OC)c(NC(=O)NC(C)(C)C)cc1Cl", "readout label": "growth inhibition", "value observed": -3.35}
{"compound": "O=S(=O)(Cl)C1c2ccccc2-c2ccccc21", "readout label": "growth inhibition", "value observed": 22.4}
{"compound": "Cc1ccc(C(=O)O)c(C(=O)O)c1", "readout label": "growth inhibition", "value observed": -11.2}
{"compound": "NC(Cc1c[nH]c2ccc(O)cc12)C(=O)O (stereo not given)", "readout label": "growth inhibition", "value observed": -5.85}
{"compound": "C/C(=C\\O[Si](C)(C)C)c1ccccc1", "readout label": "growth inhibition", "value observed": 37.6}
{"compound": "COC(=O)C1=C(C(=O)OC)N(C(C)C)[C@H]2C(C(=O)OC)=C(C(=O)OC)N(C(C)C)[C@@H]12", "readout label": "growth inhibition", "value observed": 0.2}
{"compound": "O=Cc1ccccc1S(=O)(=O)O", "readout label": "growth inhibition", "value observed": 6.65}
{"compound": "CN(C)c1ccc2c(c1)c1cc(N(C)C)ccc1n2Cc1ccccc1", "readout label": "growth inhibition", "value observed": -2.05}
{"compound": "NNC(=O)c1ccc(-c2ccc[nH]2)[nH]1", "readout label": "growth inhibition", "value observed": 10.7}
{"compound": "Nc1ccc(C(=O)NCCCC(=O)O)cc1", "readout label": "growth inhibition", "value observed": -1.85}
{"compound": "CCC1(C)OC(C)CC(C)(C)O1 (stereo not given)", "readout label": "growth inhibition", "value observed": 0.65}
{"compound": "N[C@H](CCC(=O)NCP(=O)(O)O)C(=O)O", "readout label": "growth inhibition", "value observed": -43.7}
{"compound": "COC(=O)C(Cl)=C1CC1", "readout label": "growth inhibition", "value observed": 5.7}
{"compound": "Nc1cccc2sccc12", "readout label": "growth inhibition", "value observed": 4.25}
{"compound": "Oc1ccc(Cl)cc1/C=N\\N=C\\c1cc(Cl)ccc1O", "readout label": "growth inhibition", "value observed": -50.3}
{"compound": "O=C(O)c1cc(CC2Cc3cc4c(cc3C2=O)CCC4)cc2c1CCC2 (stereo not given)", "readout label": "growth inhibition", "value observed": -27.4}
{"compound": "CCOc1cc[n+](C)c2ccc(C)cc12", "readout label": "growth inhibition", "value observed": 13.6}
{"compound": "C[CH2][Sn]([CH2]C)([O]C(=O)c1cccc(F)c1)[O][Sn]([CH2]C)([CH2]C)[O]C(=O)c1cccc(F)c1", "readout label": "growth inhibition", "value observed": 31.4}
{"compound": "O=S(=O)(Cc1ccccc1)CC(Br)CBr (stereo not given)", "readout label": "growth inhibition", "value observed": 82.9}
{"compound": "C=CC1C(OC2OC(CO)C(O)C(O)C2O)OC=C(C(=O)OC)C1CC=O (stereo not given)", "readout label": "growth inhibition", "value observed": 32.9}
{"compound": "COC(=O)C(Cc1nc2ccccc2[nH]c1=O)/C(=N\\NC(C)(C)C)C(=O)Nc1c(C)cc(Br)cc1C (stereo not given)", "readout label": "growth inhibition", "value observed": 17.2}
{"compound": "O=C(Nc1cc(Cl)c(Cl)cc1Cl)N1CCOCC1", "readout label": "growth inhibition", "value observed": 0.15}
{"compound": "CCOc1ccc2nc(SCCl)sc2c1", "readout label": "growth inhibition", "value observed": 6.1}

---

Test: NCI Yeast Anticancer Drug Screen. Data for the cln2 rad14 strain (AID 165);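 note: 0% = growth equal to vehicle treated cultures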
Conditions: S. cerevisiae cln2 rad14 strain, at 50.0 µM, stronger effect = higher value
The panel holds about 79,000 compounds, 15% with a hit somewhere; the sample as a whole holds those more often.
Listed here: items and their measured growth inhibition.

{"molecule": "CCN(c1ccc(Br)cc1)c1ccc(Br)cc1", "unit abbreviation": "%", "growth inhibition": -7.75}
{"molecule": "Cc1n(Cc2ccccc2)nc2sc(N)n[n+]12", "unit abbreviation": "%", "growth inhibition": -0.55}
{"molecule": "CCCSCCC(N)C(=O)O (configuration not stated)", "unit abbreviation": "%", "growth inhibition": -5.7}
{"molecule": "O=C(N=Nc1c(O)[nH]c2c(Cl)cc(Cl)cc12)c1ccccc1O", "unit abbreviation": "%", "growth inhibition": 12.5}
{"molecule": "O=[N+]([O-])c1ccc(Cl)c(F)c1Cl", "unit abbreviation": "%", "growth inhibition": 5.15}
{"molecule": "CN(CCCN)CCCN", "unit abbreviation": "%", "growth inhibition": -55.6}
{"molecule": "O=C(O)COc1cccc([N+](=O)[O-])c1", "unit abbreviation": "%", "growth inhibition": -62.5}

---

Test: NCI Yeast Anticancer Drug Screen. Data for the bub3 strain (AID 167)
Conditions: S. cerevisiae bub3 mutant strain, at 50.0 µM, stronger effect = higher value
Compounds without any hit were thinned out: in the full panel of roughly 79,000, 15% have a hit.
Catalogue of compounds with associated growth inhibition

{"compound": "CCC(/C=N\\O)CC", "unit abbreviation": "%", "growth inhibition": -3.05}
{"compound": "CC(C)N1C(=O)NC(=O)C12CCN(Cc1ccccc1)CC2", "unit abbreviation": "%", "growth inhibition": 11.6}
{"compound": "C=CCOC(=O)Nc1ccc(S(=O)(=O)CC)cc1", "unit abbreviation": "%", "growth inhibition": 22.8}
{"compound": "O=[N+]([O-])c1ccc(CN(Cc2ccc([N+](=O)[O-])cc2)c2ccc3c(c2)C(O)c2ccccc2-3)cc1 (centres undefined)", "unit abbreviation": "%", "growth inhibition": 1.8}
{"compound": "CC(C)c1ccccc1NC(=O)C(=O)Cc1nc2ccccc2s1", "unit abbreviation": "%", "growth inhibition": 38.3}
{"compound": "O=COC1CC2CC1c1ccccc12 (centres undefined)", "unit abbreviation": "%", "growth inhibition": -3.85}
{"compound": "NC1c2ccccc2CCc2ccccc21", "unit abbreviation": "%", "growth inhibition": 6.8}
{"compound": "O=C(O)CCCC1(CCCC(=O)O)OCCO1", "unit abbreviation": "%", "growth inhibition": -13.8}
{"compound": "NC(Cc1c[nH]c2ccc(Br)cc12)C(=O)O (centres undefined)", "unit abbreviation": "%", "growth inhibition": -29.8}
{"compound": "CC1(C)[C@@H]2C[C@H]1[C@@H](Cc1cccc(C[C@H]3c4cc(-c5ccccn5)ncc4[C@H]4C[C@@H]3C4(C)C)c1)c1cc(-c3ccccn3)ncc12", "unit abbreviation": "%", "growth inhibition": 45.9}
{"compound": "Cn1c(=O)c2c(nc3n(C)c(=O)c4ccccc4n23)n(C)c1=O", "unit abbreviation": "%", "growth inhibition": 5.45}
{"compound": "Nc1ccn(C2CC3OCC3O2)c(=O)n1 (centres undefined)", "unit abbreviation": "%", "growth inhibition": 0.95}
{"compound": "Cc1ccc(S(=O)(=O)C(=S)SCc2ccccc2)cc1", "unit abbreviation": "%", "growth inhibition": 35.4}
{"compound": "O=c1[nH]c2cc(Cl)ccc2nc1C1=C(O)c2ccccc2C1", "unit abbreviation": "%", "growth inhibition": 6.7}
{"compound": "CCOC(=O)C(Nc1cccc2ccccc12)C(=O)OCC", "unit abbreviation": "%", "growth inhibition": 46.2}
{"compound": "NC(=O)NC(=O)CC1NC(=O)NC1=O (centres undefined)", "unit abbreviation": "%", "growth inhibition": -4.1}
{"compound": "COc1c(NC(=O)c2c(Br)c(Br)c(Br)c(Br)c2C(=O)O)cccc1[N+](=O)[O-]", "unit abbreviation": "%", "growth inhibition": -1.2}
{"compound": "NNC(=O)c1ccccc1O", "unit abbreviation": "%", "growth inhibition": 13.4}
{"compound": "CN(C)Cc1ccccc1COC(=O)c1ccc(Cl)cc1", "unit abbreviation": "%", "growth inhibition": 17.4}
{"compound": "CCCNC(=O)C1C(=O)C(=O)N(CCC)C1=O (centres undefined)", "unit abbreviation": "%", "growth inhibition": -3.9}
{"compound": "CCN(CC)C1=Nc2ccccc2N(c2ccccc2)C(SC)=C1", "unit abbreviation": "%", "growth inhibition": 2.25}
{"compound": "CC1SCCNC1=O (centres undefined)", "unit abbreviation": "%", "growth inhibition": 4}
{"compound": "CCC(CC)c1nc2c([nH]1)c(=O)n(C)c(=O)n2C", "unit abbreviation": "%", "growth inhibition": -7.2}
{"compound": "O=C1C(OC(=O)c2ccccc2)=C(c2ccc(O)cc2)C(=O)C(OC(=O)c2ccccc2)=C1c1ccc(O)cc1", "unit abbreviation": "%", "growth inhibition": 17.2}
